# ASSAYED SYSTEM: CYP2C9 (Homo sapiens)
# Sequence (P11712 whole entry): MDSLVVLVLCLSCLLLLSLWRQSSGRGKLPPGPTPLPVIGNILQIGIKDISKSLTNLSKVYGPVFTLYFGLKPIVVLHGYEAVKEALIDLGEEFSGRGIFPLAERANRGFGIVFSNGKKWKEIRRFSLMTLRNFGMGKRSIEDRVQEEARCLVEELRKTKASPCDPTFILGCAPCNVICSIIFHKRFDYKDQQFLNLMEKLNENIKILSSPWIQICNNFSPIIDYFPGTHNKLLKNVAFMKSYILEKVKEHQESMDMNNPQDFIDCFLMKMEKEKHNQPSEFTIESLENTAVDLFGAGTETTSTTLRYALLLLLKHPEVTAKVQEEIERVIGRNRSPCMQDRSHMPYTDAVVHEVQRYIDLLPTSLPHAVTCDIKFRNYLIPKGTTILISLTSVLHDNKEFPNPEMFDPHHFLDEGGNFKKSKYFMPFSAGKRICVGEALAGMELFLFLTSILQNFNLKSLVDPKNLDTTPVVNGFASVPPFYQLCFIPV
# ASSAY COMMENT: Reversible CYP inhibition in pooled human liver microsomes
# Format: in vitro ADME
# CONDITION SET: reversible, CYP2C9 diclofenac 4′-hydroxylation; read-out: Islatravir IC50
pIC50: −log10 of the molar value.
READOUT: pIC50

>>> result("C#C[C@]1(CO)O[C@@H](n2cnc3c(N)nc(F)nc32)C[C@@H]1O [Islatravir, 4′-Ethynyl-2-fluoro-2′-deoxyadenosine]")
"< 4.00"

---

# ASSAYED SYSTEM: MRP4 (Homo sapiens, UniProt O15439)
# Sequence (O15439 whole entry): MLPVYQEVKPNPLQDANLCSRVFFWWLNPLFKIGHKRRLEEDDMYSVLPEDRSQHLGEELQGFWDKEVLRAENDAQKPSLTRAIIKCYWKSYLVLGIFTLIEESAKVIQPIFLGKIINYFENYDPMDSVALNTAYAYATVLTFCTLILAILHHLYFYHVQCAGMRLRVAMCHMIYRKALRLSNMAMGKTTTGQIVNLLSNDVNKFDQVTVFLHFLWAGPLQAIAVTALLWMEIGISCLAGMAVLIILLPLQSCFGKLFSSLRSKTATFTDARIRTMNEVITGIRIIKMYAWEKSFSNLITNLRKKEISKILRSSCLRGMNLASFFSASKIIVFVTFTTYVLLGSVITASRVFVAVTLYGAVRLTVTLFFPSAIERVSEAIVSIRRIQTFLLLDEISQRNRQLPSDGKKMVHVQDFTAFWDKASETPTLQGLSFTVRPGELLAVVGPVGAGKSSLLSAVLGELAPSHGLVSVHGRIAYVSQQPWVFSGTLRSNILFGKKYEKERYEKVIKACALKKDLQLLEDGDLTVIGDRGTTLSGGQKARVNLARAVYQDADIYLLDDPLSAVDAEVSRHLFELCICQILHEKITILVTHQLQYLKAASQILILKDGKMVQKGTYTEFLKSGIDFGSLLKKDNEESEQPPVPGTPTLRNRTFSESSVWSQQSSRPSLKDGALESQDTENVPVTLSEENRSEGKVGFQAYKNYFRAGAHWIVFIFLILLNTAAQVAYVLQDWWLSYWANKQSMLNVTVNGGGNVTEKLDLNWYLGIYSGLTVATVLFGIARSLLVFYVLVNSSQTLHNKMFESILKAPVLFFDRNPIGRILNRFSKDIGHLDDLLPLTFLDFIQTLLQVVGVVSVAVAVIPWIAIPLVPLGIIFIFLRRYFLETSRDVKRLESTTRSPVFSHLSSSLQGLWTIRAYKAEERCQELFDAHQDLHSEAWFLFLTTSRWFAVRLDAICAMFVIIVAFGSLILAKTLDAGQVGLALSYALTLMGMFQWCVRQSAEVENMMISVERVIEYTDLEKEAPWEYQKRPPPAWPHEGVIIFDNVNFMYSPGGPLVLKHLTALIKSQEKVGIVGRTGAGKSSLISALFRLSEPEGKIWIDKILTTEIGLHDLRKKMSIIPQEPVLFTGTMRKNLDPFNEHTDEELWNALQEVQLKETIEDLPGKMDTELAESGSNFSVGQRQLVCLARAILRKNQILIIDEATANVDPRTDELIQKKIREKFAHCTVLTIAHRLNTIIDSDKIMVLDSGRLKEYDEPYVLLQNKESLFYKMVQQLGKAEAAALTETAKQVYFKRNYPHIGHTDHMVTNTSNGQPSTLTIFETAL
# ASSAY COMMENT: Inhibition of ATP-dependent probe uptake in Sf9 membrane vesicles
# CONDITION SET: MRP4-mediated ATP-dependent uptake of folic acid
pIC50: −log10 of the molar value.
READOUT: pIC50

>>> result("C#C[C@]1(CO)O[C@@H](n2cnc3c(N)nc(F)nc32)C[C@@H]1O [Islatravir, 4′-Ethynyl-2-fluoro-2′-deoxyadenosine]")
"< 4.00"

---

# ASSAYED SYSTEM: CYP2D6 (Homo sapiens)
# Sequence (P10635 whole entry): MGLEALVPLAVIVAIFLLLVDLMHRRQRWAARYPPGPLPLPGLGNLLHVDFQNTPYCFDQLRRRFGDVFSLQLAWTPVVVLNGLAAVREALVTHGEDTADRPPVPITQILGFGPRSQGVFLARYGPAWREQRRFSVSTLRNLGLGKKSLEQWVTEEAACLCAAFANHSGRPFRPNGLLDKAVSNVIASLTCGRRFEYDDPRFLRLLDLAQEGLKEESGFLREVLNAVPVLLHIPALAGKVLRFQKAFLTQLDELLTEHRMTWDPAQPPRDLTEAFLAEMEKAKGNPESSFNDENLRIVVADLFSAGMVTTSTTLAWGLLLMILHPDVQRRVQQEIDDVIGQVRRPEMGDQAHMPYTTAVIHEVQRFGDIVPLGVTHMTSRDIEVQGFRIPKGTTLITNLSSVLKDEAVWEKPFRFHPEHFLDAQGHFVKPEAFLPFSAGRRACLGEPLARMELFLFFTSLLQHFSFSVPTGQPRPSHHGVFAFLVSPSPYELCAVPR
# ASSAY COMMENT: Time-dependent CYP inhibition in pooled human liver microsomes
# Assay type: in vitro ADME
# CONDITION SET: time dependent, CYP2D6; read-out: Islatravir IC50
pIC50: −log10 of the molar value.
READOUT: pIC50

>>> result("C#C[C@]1(CO)O[C@@H](n2cnc3c(N)nc(F)nc32)C[C@@H]1O [Islatravir, 4′-Ethynyl-2-fluoro-2′-deoxyadenosine]")
"< 4.30"

---

# ASSAYED SYSTEM: MATE2K (Homo sapiens)
# Sequence (Q86VL8 1-566 isoform Q86VL8-3): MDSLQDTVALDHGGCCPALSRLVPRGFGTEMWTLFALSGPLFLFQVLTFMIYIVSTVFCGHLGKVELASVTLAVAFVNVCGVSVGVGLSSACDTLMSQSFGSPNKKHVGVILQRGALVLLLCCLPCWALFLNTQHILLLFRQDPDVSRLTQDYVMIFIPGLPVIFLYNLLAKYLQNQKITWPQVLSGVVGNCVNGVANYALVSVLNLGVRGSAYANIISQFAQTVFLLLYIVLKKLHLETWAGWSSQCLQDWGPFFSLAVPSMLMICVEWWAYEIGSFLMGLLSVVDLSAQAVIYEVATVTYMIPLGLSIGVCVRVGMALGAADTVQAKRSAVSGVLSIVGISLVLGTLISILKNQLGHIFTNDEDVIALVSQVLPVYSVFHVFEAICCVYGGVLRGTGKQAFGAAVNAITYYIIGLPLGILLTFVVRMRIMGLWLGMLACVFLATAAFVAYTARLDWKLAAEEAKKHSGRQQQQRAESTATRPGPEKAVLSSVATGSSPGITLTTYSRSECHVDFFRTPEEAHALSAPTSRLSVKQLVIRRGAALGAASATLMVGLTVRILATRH
# ASSAY COMMENT: Inhibition of transporter-mediated probe uptake in MDCKII-MATE2K cells
# CONDITION SET: MATE2K, metformin uptake; read-out: Islatravir IC50
READOUT: IC50

>>> result("C#C[C@]1(CO)O[C@@H](n2cnc3c(N)nc(F)nc32)C[C@@H]1O")
"> 75 µM"

---

# ASSAYED SYSTEM: OATP1B3 (Homo sapiens, UniProt Q9NPD5)
# Sequence (Q9NPD5 whole entry): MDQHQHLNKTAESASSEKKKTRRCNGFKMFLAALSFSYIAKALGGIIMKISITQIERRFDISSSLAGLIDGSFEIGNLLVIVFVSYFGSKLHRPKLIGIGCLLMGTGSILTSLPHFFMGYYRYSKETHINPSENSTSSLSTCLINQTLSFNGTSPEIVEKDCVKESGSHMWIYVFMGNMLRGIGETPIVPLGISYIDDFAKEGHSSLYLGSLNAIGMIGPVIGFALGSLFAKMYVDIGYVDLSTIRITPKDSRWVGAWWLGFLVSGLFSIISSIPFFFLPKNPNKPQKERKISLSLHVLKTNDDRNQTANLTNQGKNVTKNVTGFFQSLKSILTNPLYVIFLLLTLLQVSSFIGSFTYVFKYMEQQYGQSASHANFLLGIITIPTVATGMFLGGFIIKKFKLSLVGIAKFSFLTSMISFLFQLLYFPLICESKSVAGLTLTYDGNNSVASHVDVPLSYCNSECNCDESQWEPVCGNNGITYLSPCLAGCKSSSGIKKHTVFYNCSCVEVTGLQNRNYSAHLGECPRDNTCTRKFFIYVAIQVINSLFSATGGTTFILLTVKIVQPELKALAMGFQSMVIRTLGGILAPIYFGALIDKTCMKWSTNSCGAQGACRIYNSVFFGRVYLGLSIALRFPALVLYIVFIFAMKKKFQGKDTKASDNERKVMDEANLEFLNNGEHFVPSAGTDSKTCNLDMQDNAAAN
# ASSAY COMMENT: Inhibition of transporter-mediated probe uptake in HEK293-OATP1B3 cells
# CONDITION SET: OATP1B3-mediated uptake of sulfobromophthalein; read-out: Islatravir IC50
READOUT: IC50

>>> result("C#C[C@]1(CO)O[C@@H](n2cnc3c(N)nc(F)nc32)C[C@@H]1O")
"> 300 µM"

---

# ASSAYED SYSTEM: CYP2C9 (Homo sapiens)
# ASSAY COMMENT: Time-dependent CYP inhibition in pooled human liver microsomes
# Format: in vitro ADME
# CONDITION SET: time dependent, CYP2C9; read-out: Islatravir IC50
READOUT: IC50

>>> result("C#C[C@]1(CO)O[C@@H](n2cnc3c(N)nc(F)nc32)C[C@@H]1O")
"> 50 µM"

---

# ASSAYED SYSTEM: CYP2B6 (Homo sapiens, UniProt P20813)
# Sequence (P20813 whole entry): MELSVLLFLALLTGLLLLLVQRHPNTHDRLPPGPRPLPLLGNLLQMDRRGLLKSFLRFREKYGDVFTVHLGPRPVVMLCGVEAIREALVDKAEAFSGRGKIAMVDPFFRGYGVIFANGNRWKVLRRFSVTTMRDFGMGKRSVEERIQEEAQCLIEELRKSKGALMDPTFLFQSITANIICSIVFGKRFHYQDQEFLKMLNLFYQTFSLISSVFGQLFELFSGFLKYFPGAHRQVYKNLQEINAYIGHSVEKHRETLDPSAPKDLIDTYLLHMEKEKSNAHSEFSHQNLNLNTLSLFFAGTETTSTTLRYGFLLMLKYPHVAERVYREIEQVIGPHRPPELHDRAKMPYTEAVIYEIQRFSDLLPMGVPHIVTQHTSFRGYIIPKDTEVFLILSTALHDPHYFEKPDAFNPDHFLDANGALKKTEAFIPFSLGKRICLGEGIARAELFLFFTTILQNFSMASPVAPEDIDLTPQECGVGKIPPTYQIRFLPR
# ASSAY COMMENT: Reversible CYP inhibition in pooled human liver microsomes
# Type: in vitro ADME
# CONDITION SET: reversible, CYP2B6 bupropion hydroxylation; read-out: Islatravir IC50
pIC50: −log10 of the molar value.
READOUT: pIC50

>>> result("C#C[C@]1(CO)O[C@@H](n2cnc3c(N)nc(F)nc32)C[C@@H]1O")
"< 4.00"

---

# ASSAYED SYSTEM: BCRP (Homo sapiens)
# Sequence (Q9UNQ0 1-655): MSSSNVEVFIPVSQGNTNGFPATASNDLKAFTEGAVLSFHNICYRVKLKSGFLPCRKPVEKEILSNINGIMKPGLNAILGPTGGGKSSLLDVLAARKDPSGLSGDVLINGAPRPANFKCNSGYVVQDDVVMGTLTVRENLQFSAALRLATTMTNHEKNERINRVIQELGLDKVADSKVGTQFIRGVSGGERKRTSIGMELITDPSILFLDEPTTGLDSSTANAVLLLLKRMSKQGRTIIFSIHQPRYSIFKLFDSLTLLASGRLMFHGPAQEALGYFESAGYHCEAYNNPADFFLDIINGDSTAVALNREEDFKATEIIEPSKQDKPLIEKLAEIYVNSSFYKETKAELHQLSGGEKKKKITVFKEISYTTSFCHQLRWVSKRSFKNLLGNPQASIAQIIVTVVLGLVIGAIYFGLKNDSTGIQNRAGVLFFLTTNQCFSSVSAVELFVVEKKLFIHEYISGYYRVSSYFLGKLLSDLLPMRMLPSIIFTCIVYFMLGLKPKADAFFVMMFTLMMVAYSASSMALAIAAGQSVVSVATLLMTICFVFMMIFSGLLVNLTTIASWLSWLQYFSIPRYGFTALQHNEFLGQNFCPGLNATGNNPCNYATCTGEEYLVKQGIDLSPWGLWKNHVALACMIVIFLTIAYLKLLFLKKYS
# ASSAY COMMENT: Bidirectional transport across MDCKII and MDCKII-BCRP cell monolayers
# Assay type: in vitro ADME
# Set-up: expressed in transfected cells; host or cells: MDCKII
# CONDITION SET: human; islatravir 2 µM, BCRP-transfected monolayers with Ko143 (5 µM), mean ± SEM; read-out: mean Papp(B to A)/Papp(A to B) efflux ratio
READOUT: efflux ratio at 3 h, 2 µM

>>> result("C#C[C@]1(CO)O[C@@H](n2cnc3c(N)nc(F)nc32)C[C@@H]1O")
0.9

---

# ASSAYED SYSTEM: BCRP (Homo sapiens)
# ASSAY COMMENT: Bidirectional transport across MDCKII and MDCKII-BCRP cell monolayers
# Type: in vitro ADME
# Parameters: expressed in transfected cells; host or cells: MDCKII
# CONDITION SET: dog, MDCK; positive control substrate 1 µM, untransfected control cells, mean ± SEM
READOUT: efflux ratio

>>> number("COc1cc2nc(N3CCN(C(=O)c4ccco4)CC3)nc(N)c2cc1OC [prazosin, reference compound]")
1

---

# ASSAYED SYSTEM: OCT1 (Homo sapiens)
# Sequence (O15245 1-554): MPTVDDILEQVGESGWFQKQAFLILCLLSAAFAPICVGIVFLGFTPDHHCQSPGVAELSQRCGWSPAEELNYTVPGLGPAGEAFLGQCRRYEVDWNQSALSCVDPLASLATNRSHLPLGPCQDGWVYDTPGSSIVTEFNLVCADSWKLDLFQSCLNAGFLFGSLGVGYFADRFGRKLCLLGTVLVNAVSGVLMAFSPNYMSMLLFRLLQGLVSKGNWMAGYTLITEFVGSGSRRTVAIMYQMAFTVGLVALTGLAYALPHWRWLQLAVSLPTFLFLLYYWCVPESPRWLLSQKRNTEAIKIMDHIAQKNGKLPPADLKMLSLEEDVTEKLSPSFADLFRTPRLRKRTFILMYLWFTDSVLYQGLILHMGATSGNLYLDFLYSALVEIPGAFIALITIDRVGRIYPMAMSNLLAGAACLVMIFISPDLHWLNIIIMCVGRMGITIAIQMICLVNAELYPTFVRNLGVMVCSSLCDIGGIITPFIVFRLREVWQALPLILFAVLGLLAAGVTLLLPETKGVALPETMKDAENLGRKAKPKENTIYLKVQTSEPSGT
# ASSAY COMMENT: Inhibition of transporter-mediated probe uptake in CHO-K1-OCT1 cells
# CONDITION SET: OCT1-mediated uptake of metformin; read-out: Islatravir IC50
READOUT: IC50

>>> result("C#C[C@]1(CO)O[C@@H](n2cnc3c(N)nc(F)nc32)C[C@@H]1O")
"> 300 µM"

---

# ASSAY COMMENT: Renal clearance after 1 mg/kg intravenous, mouse
# Type: in vivo, male CD-1 mice
# CONDITION SET: male, CD-1, plasma and urine, iv, 1 mg/kg intravenously, urine 0-24 h
READOUT: CL renal (mL/min/kg)

>>> number("C#C[C@]1(CO)O[C@@H](n2cnc3c(N)nc(F)nc32)C[C@@H]1O [Islatravir, 4′-Ethynyl-2-fluoro-2′-deoxyadenosine]")
15.4

---

# ASSAYED SYSTEM: BCRP (Homo sapiens)
# ASSAY COMMENT: Bidirectional transport across MDCKII and MDCKII-BCRP cell monolayers
# Type: in vitro ADME
# Design: expressed in transfected cells; host or cells: MDCKII
# CONDITION SET: dog, MDCK; islatravir 2 µM, untransfected control cells, mean ± SEM; read-out: mean Papp(B to A)/Papp(A to B) efflux ratio
READOUT: efflux ratio at 2 µM

>>> number("C#C[C@]1(CO)O[C@@H](n2cnc3c(N)nc(F)nc32)C[C@@H]1O")
0.8

---

# ASSAY COMMENT: Plasma protein binding by equilibrium dialysis, rat plasma
# Format: in vitro ADME
# CONDITION SET: pH 7.4
READOUT: fraction unbound at 24 h, 0.1 µM

>>> result("C#C[C@]1(CO)O[C@@H](n2cnc3c(N)nc(F)nc32)C[C@@H]1O")
"> 0.84"
